# assayed.system: activated human MMP13 (human, UniProt P45452 104-471)
# measurement.protocol: cell-based or functional assay
measurement.label: IC50, human fluorogenic collagen assay (nM)
Numbers only, in nM.

Example binders with recorded IC50, human fluorogenic collagen assay:
- binder: "40E09-517A01 clone 71 (bispecific antibody) EVQLVESGGGSVQAGGSLRLSCAASGSTFSRYSMNWYRQAPGKQREFVAGISVGRITNYAVSVRGRFTISRDNAEGTGYLQMNSLKPEDTAVYYCNAGGLQGYWGLGTLVTVSSGGGGSGGGGSGGGGSGGGGSGGGGSGGGGSGGGGSEVQLVESGGGLVQPGGSLRLSCAASGRTFSSYAMGWFRQAPGKEREFVAAISWSGGSTYYADSVKGRFTISRDNSKNTVYLQMNSLRPEDTAVYYCTAALAVYGPNRYRYGPVGEYNYWGQGTLVTVSS"
  IC50, human fluorogenic collagen assay / nM: 6.5
- binder: "62C02-40E09 clone 72 (bispecific antibody) EVQLVESGGALVRPGGSLRLSCAASGFAFSAAYMSWVRQAPGRGLEWVSSISDDGSKTYYADSVKGRFTISRDNAKNTVYLQMNNLKPDDTAVYYCNTGYGATTTRPGRYWGQGTLVTVSSGGGGSGGGGSGGGGSGGGGSGGGGSGGGGSGGGGSEVQLVESGGGSVQAGGSLRLSCAASGSTFSRYSMNWYRQAPGKQREFVAGISVGRITNYAVSVRGRFTISRDNAEGTGYLQMNSLKPEDTAVYYCNAGGLQGYWGLGTLVTVSS"
  IC50, human fluorogenic collagen assay / nM: 2.4

For each entry beneath this line, provide reported IC50, human fluorogenic collagen assay.
1. C0101PMP062C02 (VHH, Profile 2 Nanobody; also called C0101062C02) VHH: EVQLVESGGALVRPGGSLRLSCAASGFAFSAAYMSWVRQAPGRGLEWVSSISDDGSKTYYADSVKGRFTISRDNAKNTVYLQMNNLKPDDTAVYYCNTGYGATTTRPGRYWGQGTQVTVSS
2. 40E09-516G08 clone 70 (bispecific antibody) EVQLVESGGGSVQAGGSLRLSCAASGSTFSRYSMNWYRQAPGKQREFVAGISVGRITNYAVSVRGRFTISRDNAEGTGYLQMNSLKPEDTAVYYCNAGGLQGYWGLGTLVTVSSGGGGSGGGGSGGGGSGGGGSGGGGSGGGGSGGGGSEVQLVESGGGLVQPGGSLRLSCAGSGSIFRINVMAWYRQAPGKQRELVAAITSGGTTNYADSVKGRFTISRDNSKNTVYLQMNSLRPEDTAVYYCYADIGWPYVLDYDFWGQGTLVTVSS
3. 517A01-40E09 clone 80 (bispecific antibody) EVQLVESGGGLVQPGGSLRLSCAASGRTFSSYAMGWFRQAPGKEREFVAAISWSGGSTYYADSVKGRFTISRDNSKNTVYLQMNSLRPEDTAVYYCTAALAVYGPNRYRYGPVGEYNYWGQGTLVTVSSGGGGSGGGGSGGGGSGGGGSGGGGSGGGGSGGGGSEVQLVESGGGSVQAGGSLRLSCAASGSTFSRYSMNWYRQAPGKQREFVAGISVGRITNYAVSVRGRFTISRDNAEGTGYLQMNSLKPEDTAVYYCNAGGLQGYWGLGTLVTVSS

Outgoing:
1: 8.32; 2: 2.9; 3: 4.06

These data points were gathered from patent US12129308.
